# Tested on: NCI-H520
# Method summary: relative viability (nuclei count vs DMSO), 5 days (fraction); higher = more cells survive
# Experimental context: first compound 0.005 µM
Parameter measured: relative viability
I only need the number, thanks.

Data request: Given the entry CC1(C)CCC(c2ccc(Cl)cc2)=C(CN2CCN(c3ccc(C(=O)NS(=O)(=O)c4ccc(N[C@H](CCN5CCOCC5)CSc5ccccc5)c(S(=O)(=O)C(F)(F)F)c4)cc3)CC2)C1 [Navitoclax] + Nc1nc2[nH]cc(CCc3ccc(C(=O)N[C@@H](CCC(=O)O)C(=O)O)cc3)c2c(=O)[nH]1 [Pemetrexed] (partner 0.2 µM) , report its measured relative viability.
Data returned: 0.713

Data request: Given the entry CC1(C)CCC(c2ccc(Cl)cc2)=C(CN2CCN(c3ccc(C(=O)NS(=O)(=O)c4ccc(N[C@H](CCN5CCOCC5)CSc5ccccc5)c(S(=O)(=O)C(F)(F)F)c4)cc3)CC2)C1 [Navitoclax] + C[C@@H](Oc1cc(-c2cnn(C3CCNCC3)c2)cnc1N)c1c(Cl)ccc(F)c1Cl [Crizotinib] (partner 1 µM) , report its measured relative viability.
Data returned: 0.751

Data request: Given the entry CC1(C)CCC(c2ccc(Cl)cc2)=C(CN2CCN(c3ccc(C(=O)NS(=O)(=O)c4ccc(N[C@H](CCN5CCOCC5)CSc5ccccc5)c(S(=O)(=O)C(F)(F)F)c4)cc3)CC2)C1 [Navitoclax] + O=C(CCCCCCC(=O)Nc1ccccc1)NO [Vorinostat] (partner 1 µM) , report its measured relative viability.
Data returned: 0.743

Data request: Given the entry CC1(C)CCC(c2ccc(Cl)cc2)=C(CN2CCN(c3ccc(C(=O)NS(=O)(=O)c4ccc(N[C@H](CCN5CCOCC5)CSc5ccccc5)c(S(=O)(=O)C(F)(F)F)c4)cc3)CC2)C1 [Navitoclax] + N=C(N)NC(=N)NCCc1ccccc1 [Phenformin] (partner 250 µM) , report its measured relative viability.
Data returned: 0.576

Data request: Given the entry CC1(C)CCC(c2ccc(Cl)cc2)=C(CN2CCN(c3ccc(C(=O)NS(=O)(=O)c4ccc(N[C@H](CCN5CCOCC5)CSc5ccccc5)c(S(=O)(=O)C(F)(F)F)c4)cc3)CC2)C1 [Navitoclax] + CC(=O)c1c(C)c2cnc(Nc3ccc(N4CCNCC4)cn3)nc2n(C2CCCC2)c1=O [Palbociclib] (partner 0.5 µM) , report its measured relative viability.
Data returned: 0.273
